# Tested on: Staphylococcus aureus 209 P
# run.description: MIC, standard tube dilution procedure
# Format: cell-based
# study.conditions: in vitro

compound	MIC
COc1cccc2c1C(=O)c1c(cc3c(c1O)[C@@H](O[C@H]1C[C@H](N)[C@H](O)[C@H](C)O1)C[C@](O)(C(C)=O)C3)C2=O [Glycoside C, 11-deoxydaunomycin]	62 µg/mL
COc1cccc2c1C(=O)c1c(cc3c(c1O)[C@@H](O[C@H]1C[C@H](N)[C@H](O)[C@H](C)O1)C[C@](O)(C(C)O)C3)C2=O (stereo partly shown) [Glycoside B, 11-deoxy-13-dihydrodaunomycin]	1000 µg/mL
CC[C@]1(O)Cc2cc3c(c(O)c2[C@@H](O[C@H]2C[C@H](N)[C@H](O)[C@H](C)O2)C1)C(=O)c1c(OC)cccc1C3=O [Glycoside D, 11-deoxy-13-deoxo-daunomycin]	250 µg/mL
COc1cccc2c1C(=O)c1c(cc3c(c1O)[C@@H](O[C@H]1C[C@H](N)[C@H](O)[C@H](C)O1)C[C@](O)(C(=O)CO)C3)C2=O [Glycoside A, 11-deoxyadriamycin]	125 µg/mL

###

# Tested on: Sarcina lutea ATCC 9341
# run.description: MIC, standard tube dilution procedure
# Assay type: cell-based
# study.conditions: Micrococcus luteus, ATCC9341, in vitro
List of MIC values.
experimental.readout: MIC (µg/mL)

compound	measurement
COc1cccc2c1C(=O)c1c(cc3c(c1O)[C@@H](O[C@H]1C[C@H](N)[C@H](O)[C@H](C)O1)C[C@](O)(C(C)=O)C3)C2=O [Glycoside C, 11-deoxydaunomycin]	12.5
COc1cccc2c1C(=O)c1c(cc3c(c1O)[C@@H](O[C@H]1C[C@H](N)[C@H](O)[C@H](C)O1)C[C@](O)(C(C)O)C3)C2=O (stereo partly shown) [Glycoside B, 11-deoxy-13-dihydrodaunomycin]	100
CC[C@]1(O)Cc2cc3c(c(O)c2[C@@H](O[C@H]2C[C@H](N)[C@H](O)[C@H](C)O2)C1)C(=O)c1c(OC)cccc1C3=O [Glycoside D, 11-deoxy-13-deoxo-daunomycin]	25
COc1cccc2c1C(=O)c1c(cc3c(c1O)[C@@H](O[C@H]1C[C@H](N)[C@H](O)[C@H](C)O1)C[C@](O)(C(=O)CO)C3)C2=O [Glycoside A, 11-deoxyadriamycin]	100

###

# Test system: Staphylococcus aureus 153
# run.description: MIC, standard tube dilution procedure
# Assay type: cell-based
# study.conditions: in vitro

compound	MIC, µg/mL
COc1cccc2c1C(=O)c1c(cc3c(c1O)[C@@H](O[C@H]1C[C@H](N)[C@H](O)[C@H](C)O1)C[C@](O)(C(C)=O)C3)C2=O [Glycoside C, 11-deoxydaunomycin]	250
CC[C@]1(O)Cc2cc3c(c(O)c2[C@@H](O[C@H]2C[C@H](N)[C@H](O)[C@H](C)O2)C1)C(=O)c1c(OC)cccc1C3=O [Glycoside D, 11-deoxy-13-deoxo-daunomycin]	1000
COc1cccc2c1C(=O)c1c(cc3c(c1O)[C@@H](O[C@H]1C[C@H](N)[C@H](O)[C@H](C)O1)C[C@](O)(C(=O)CO)C3)C2=O [Glycoside A, 11-deoxyadriamycin]	500
COc1cccc2c1C(=O)c1c(cc3c(c1O)[C@@H](O[C@H]1C[C@H](N)[C@H](O)[C@H](C)O1)C[C@](O)(C(C)O)C3)C2=O (stereo partly shown) [Glycoside B, 11-deoxy-13-dihydrodaunomycin]	1000

Source listed as patent US4411834A.
